- Tested on: blackgrass
- experiment-summary: Test B pre/postemergence blackgrass
- Assay type: in vivo, Alopecurus myosuroides
- assay-conditions: Preemergence, Rate 500 g/ha; scale of 0 to 10 where 0 is no effect and 10 is complete control
Label Yes for high-side Plant response rating, Blackgrass (at or above 7) and No for low-side Plant response rating, Blackgrass (below it).

>  <compound>
CC(C)N(C(=O)n1oc(=O)n(CCC(=O)N(C)C)c1=O)c1ccccc1

>  <assay-target>
blackgrass

>  <class-name>
Yes

$$$$
>  <compound>
Cc1ccccc1-n1c(=O)on(C(=O)N(c2ccc(F)cc2)C(C)C2CC2)c1=O (stereo not shown)

>  <assay-target>
blackgrass

>  <class-name>
No

$$$$
>  <compound>
CC(C)N(C(=O)n1oc(=O)n(CC(=O)C2CCC2)c1=O)c1ccccc1

>  <assay-target>
blackgrass

>  <class-name>
Yes

$$$$
>  <compound>
Cc1ccccc1-n1c(=O)on(C(=O)N(c2ccc(Cl)cc2F)C(C)C)c1=O

>  <assay-target>
blackgrass

>  <class-name>
No

$$$$
>  <compound>
CC(C)N(C(=O)n1oc(=O)n(C(C)C(=O)c2ccccc2)c1=O)c1ccc(F)cc1 (stereo not shown)

>  <assay-target>
blackgrass

>  <class-name>
No

$$$$
>  <compound>
CC(C)N(C(=O)n1oc(=O)n(CC2(C)COC2)c1=O)c1ccc(F)cc1

>  <assay-target>
blackgrass

>  <class-name>
Yes

$$$$
>  <compound>
CCN(CC)C(=O)n1oc(=O)n(C2CC2)c1=O

>  <assay-target>
blackgrass

>  <class-name>
No

$$$$
>  <compound>
COC(=O)C(c1ccccc1)n1c(=O)on(C(=O)N(c2ccc(F)cc2)C(C)C)c1=O (stereo not shown)

>  <assay-target>
blackgrass

>  <class-name>
No

$$$$
>  <compound>
CC(C)N(C(=O)n1oc(=O)n(C2CC2)c1=O)c1ccc(Cl)cc1

>  <assay-target>
blackgrass

>  <class-name>
Yes

$$$$
